Quick list: IC50 per entry.
biological target: full length human TPH1 (Homo sapiens, UniProt P17752); construct: To generate the enzyme, full length human TPH1 is cloned into the plasmid pET20b(+); made in house; host or cells: E. coli; assay: Biochemical in vitro assay using fluorescence readout (TPH1 enzyme activity); settings: Table 2
Sequence (P17752 whole entry): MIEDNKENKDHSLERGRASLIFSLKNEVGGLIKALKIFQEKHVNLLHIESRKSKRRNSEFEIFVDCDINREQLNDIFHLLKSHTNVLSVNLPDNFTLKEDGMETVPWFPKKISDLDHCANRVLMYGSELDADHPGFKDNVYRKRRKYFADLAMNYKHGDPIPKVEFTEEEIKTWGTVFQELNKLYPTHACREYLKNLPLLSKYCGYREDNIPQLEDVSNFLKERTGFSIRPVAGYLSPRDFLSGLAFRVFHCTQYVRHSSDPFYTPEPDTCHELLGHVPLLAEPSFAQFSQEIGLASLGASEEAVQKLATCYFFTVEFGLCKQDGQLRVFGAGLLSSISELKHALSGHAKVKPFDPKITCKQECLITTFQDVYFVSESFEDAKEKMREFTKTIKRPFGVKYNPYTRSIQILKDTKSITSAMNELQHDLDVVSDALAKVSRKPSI
Just the number in nM, nothing appended.

compound	IC50 [nM]
CN(C)C(=O)c1csc(C2c3c(nc4n3CCNC4)CCN2C(=O)COc2ccc(N3CCOCC3)nc2Cl)c1 (centres unmarked) [Example 5.3.1]	94
CN(CCO)c1ccc(OCC(=O)N2CCc3nc4n(c3C2c2ccc(Cl)cc2F)CCCC4)c(Cl)n1 (centres unmarked) [Example 1.1.27]	15
CNC(=O)c1csc(C2c3c(nc4n3CCCC4)CCN2C(=O)COc2ccc(NS(C)(=O)=O)nc2Cl)n1 (centres unmarked) [Example 1.7.1]	844
CC(C)(C)OC(=O)N1CCn2c(nc3c2C(c2cc(C(=O)NC#N)cs2)N(C(=O)COc2ccc(N4CCOCC4)nc2Cl)CC3)C1 (centres unmarked) [Example 5.14.1]	341

Fill in the blank: the reported IC50 of CC(=O)N1CCn2c(nc3c2C(c2cc(C(=O)N(C)C)cs2)N(C(=O)COc2ccc(N4CCOCC4)nc2Cl)CC3)C1 (centres unmarked) [Example 5.3.2] is ____.
35
